TARGET_DESC: SARS-CoV-2 Spike as carried on rVSV-SARS-CoV-2 pseudovirus and authentic WT virus (SARS-CoV-2, UniProt P0DTC2 14-1273)
ASSAY: cell-based or functional assay
Kindly state Neutralization (ng/mL), Authentic Virus IC80 for each of the entries shown.
Please give a number only; it is taken to be in ng/mL.

Neutralization (ng/mL), Authentic Virus IC80 in this record for AB-8 full-length IgG1 (antibody, V domains shown) VH: EVQLEESGTVLARPGASVKMSCKASGYTFTTYWMHWIKQRPGQGLEWIGAIYPGNSDTIYNQKFKDKAKLTAVKSTSSAYMELSSLTNEDSAVYFCTREGIPQLLRTLDYWGQGTSVTVSS VL: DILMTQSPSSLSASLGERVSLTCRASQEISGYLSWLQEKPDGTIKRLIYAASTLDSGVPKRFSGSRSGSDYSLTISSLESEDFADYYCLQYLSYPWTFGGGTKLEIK : 1600

Neutralization (ng/mL), Authentic Virus IC80 in this record for AB-3 full-length IgG1 (antibody, V domains shown) VH: EVQLEESGTVLARPGASVKMSCKASGYTFTTYWMHWIKQRPGQGLEWIGAIYPGNGDTNYNQKFKDKAKLTAVKSTSSAYMELSSLTNEDSAVYFCTREGIPQKLRTLDVWGQGTSVTVSS VL: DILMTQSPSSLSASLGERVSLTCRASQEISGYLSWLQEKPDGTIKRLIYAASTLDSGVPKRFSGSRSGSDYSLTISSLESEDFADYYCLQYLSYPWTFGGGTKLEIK : 11100

Neutralization (ng/mL), Authentic Virus IC80 in this record for AB-5 full-length IgG1 (antibody, V domains shown) VH: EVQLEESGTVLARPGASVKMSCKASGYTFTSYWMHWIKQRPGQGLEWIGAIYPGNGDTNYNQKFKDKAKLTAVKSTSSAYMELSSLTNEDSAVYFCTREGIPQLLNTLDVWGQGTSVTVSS VL: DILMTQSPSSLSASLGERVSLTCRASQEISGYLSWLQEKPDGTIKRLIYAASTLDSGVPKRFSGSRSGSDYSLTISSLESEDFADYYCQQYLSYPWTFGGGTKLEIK : 2460

Value source: patent US12473560
